Target: dopaminergic D2 receptor (Homo sapiens, UniProt P14416)
Sequence (P14416 1-414 isoform P14416-2): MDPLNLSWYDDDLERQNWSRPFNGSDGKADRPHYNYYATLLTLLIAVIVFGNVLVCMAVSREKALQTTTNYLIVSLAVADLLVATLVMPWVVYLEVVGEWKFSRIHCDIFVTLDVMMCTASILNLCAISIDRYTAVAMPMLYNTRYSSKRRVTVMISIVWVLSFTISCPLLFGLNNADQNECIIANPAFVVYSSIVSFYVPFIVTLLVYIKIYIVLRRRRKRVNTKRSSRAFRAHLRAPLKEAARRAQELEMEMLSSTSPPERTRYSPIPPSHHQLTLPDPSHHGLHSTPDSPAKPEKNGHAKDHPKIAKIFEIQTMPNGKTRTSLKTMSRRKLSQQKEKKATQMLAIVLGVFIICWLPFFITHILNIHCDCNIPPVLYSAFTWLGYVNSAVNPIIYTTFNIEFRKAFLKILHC
Experiment: Binding assay D2S (h), [3H]methyl-spiperone, HEK-293 cells
Set-up: expressed in transfected cells; host or cells: HEK-293 cells
Conditions: read-out: D2 [%]
Experimental: The specific ligand binding to the receptors is defined as the difference between the total binding and the nonspecific binding determined in the presence of an excess of so unlabelled ligand. The specific Ligand binding to the receptor is defined as the difference between total and non-specific binding determined in the presence of an excess of unlabelled ligand. The compounds were tested at a concentration of 1×10^−6 M, and scintillation counting was the method of detection of ligand binding.
MEASUREMENT_KIND: inhibition at 1 µM (%)

SMILES_REPRESENTATION	MEASUREMENT_KIND	RECORDED_NUMBER
O=S(=O)(NCCCN1CCN(c2nsc3ccccc23)CC1)c1ccc(F)c(F)c1	inhibition at 1 µM	98
O=S(=O)(NCCCCN1CCN(c2nsc3ccccc23)CC1)c1ccc(Cl)cc1	inhibition at 1 µM	104
O=S(=O)(NCCCN1CCC(c2noc3cc(F)ccc23)CC1)c1cnc2ccccn12	inhibition at 1 µM	98
O=S(=O)(NCCCN1CCC(c2noc3cc(F)ccc23)CC1)c1ccc2ccccc2c1	inhibition at 1 µM	99

----------
Tested on: adrenergic α1 receptor
Assay: Binding assay α1 (non-selective), [3H]prazosin, rat cerebral cortex
Conditions: percent inhibition of control specific binding; compounds tested at 1×10^−6 M

SMILES_REPRESENTATION	α1 [%]
O=S(=O)(NCCCN1CCC(c2noc3cc(F)ccc23)CC1)c1cccc2scnc12	97%
O=c1[nH]c2cccc(N3CCN(CCCNS(=O)(=O)c4ccc5ccccc5c4)CC3)c2[nH]1	93%
O=S(=O)(NCCCCN1CCN(c2nsc3ccccc23)CC1)c1ccc2cc(Cl)ccc2c1	94%
O=S(=O)(NCCCCN1CCN(c2nsc3ccccc23)CC1)c1ccc2cn[nH]c2c1	98%

----------
Biological target: serotonine transporter (SERT) receptor (Homo sapiens)
Construct: expressed in transfected cells; host or cells: CHO cells
Sequence (P31645 whole entry): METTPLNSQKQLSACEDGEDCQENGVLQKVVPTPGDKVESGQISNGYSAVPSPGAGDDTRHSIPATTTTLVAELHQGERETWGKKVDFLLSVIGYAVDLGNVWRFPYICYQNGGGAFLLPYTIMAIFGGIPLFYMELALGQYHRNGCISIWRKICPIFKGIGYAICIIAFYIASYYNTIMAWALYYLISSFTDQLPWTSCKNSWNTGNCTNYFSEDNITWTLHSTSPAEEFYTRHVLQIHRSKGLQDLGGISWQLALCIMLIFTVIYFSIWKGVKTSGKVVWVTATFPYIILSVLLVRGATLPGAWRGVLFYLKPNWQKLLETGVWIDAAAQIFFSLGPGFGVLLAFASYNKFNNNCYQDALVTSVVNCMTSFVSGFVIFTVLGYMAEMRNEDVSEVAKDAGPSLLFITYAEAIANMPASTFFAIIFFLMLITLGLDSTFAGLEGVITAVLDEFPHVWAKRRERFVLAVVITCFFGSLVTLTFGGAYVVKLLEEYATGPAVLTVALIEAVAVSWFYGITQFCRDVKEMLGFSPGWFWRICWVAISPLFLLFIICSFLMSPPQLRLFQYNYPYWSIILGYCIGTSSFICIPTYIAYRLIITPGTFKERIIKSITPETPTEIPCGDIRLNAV
Test: Binding assay SERT (h), [3H]imipramine, CHO cells
Conditions: read-out: SERT [%]
Each entry below carries its reported inhibition at 1 µM.

SMILES_REPRESENTATION	inhibition at 1 µM (%)
Cn1ccc2c(S(=O)(=O)NCCCCN3CCC(c4noc5cc(F)ccc45)CC3)cccc21	57
O=S(=O)(NCCCCN1CCC(c2noc3cc(F)ccc23)CC1)c1cc2ccccc2o1	47
Cc1c(S(=O)(=O)NCCCCN2CCN(c3cccc4[nH]c(=O)[nH]c34)CC2)sc2ccc(Cl)cc12	4
Cc1c(S(=O)(=O)NCCCN2CCN(c3nsc4ccccc34)CC2)sc2ccc(F)cc12	93
O=c1[nH]c2ccc(S(=O)(=O)NCCN3CCN(c4nsc5ccccc45)CC3)cc2o1	7
O=S(=O)(NCCCCN1CCN(c2nsc3ccccc23)CC1)c1ccc(Cl)s1	-3
O=S(=O)(NCCCN1CCN(c2nsc3ccccc23)CC1)c1cccc2ccccc12	84
O=S(=O)(NCCCCN1CCN(c2cccc3c2OCCO3)CC1)c1ccc2cn[nH]c2c1	16
O=S(=O)(NCCCCN1CCC(c2noc3cc(F)ccc23)CC1)c1cccc(F)c1	-12
O=S(=O)(NCCCN1CCN(c2nsc3ccccc23)CC1)c1ccc(F)cc1	80
O=S(=O)(NCCCN1CCC(c2noc3cc(F)ccc23)CC1)c1ccsc1	9
O=S(=O)(NCCCCN1CCC(c2noc3cc(F)ccc23)CC1)c1cccc2ccccc12	44
O=S(=O)(NCCCCN1CCN(c2nsc3ccccc23)CC1)c1cccc2scnc12	63
Cc1[nH]c2ccc(Cl)cc2c1C1=CCN(CCCNS(=O)(=O)c2cccc(Cl)c2)CC1	25
O=S(=O)(NCCCN1CCN(c2nsc3ccccc23)CC1)c1ccc(F)c(Cl)c1	80
O=S(=O)(NCCCN1CCN(c2nsc3ccccc23)CC1)c1cccc(Cl)c1	82
O=S(=O)(NCCCCN1CCN(c2cccc3c2OCCO3)CC1)c1ccc2c(c1)OCO2	-9

Recorded values, source patent US8822517B2.
